molecular target: guinea pig atrium (β1) (Cavia porcellus); construct: Spontaneously beating right atria were dissected from guinea-pigs; from tissue; host or cells: guinea-pig right atrium (strip including the sinoatrial node); assay: Guinea-pig right atrium test: inhibition of isoprenaline-induced increase in heart rate (β1-adrenergic receptor blocking activity, in vitro); conditions: isolated right atrium, 30 min incubation, 37.5° C., estimated graphically, read-out: ED50 value on guinea pig atrium (β1) (converted)
Rule: measured IC50 below 3 nM gets label 1; anything equal to or greater than 3 nM gets label 0.

molecule	assayed target	qualitative label
Oc1ccc2c(c1)CCC(C(O)CNCC(O)C1CCc3cc(O)ccc3O1)O2 (stereo not drawn)	guinea pig atrium (β1) (Cavia porcellus)	label 1
OC(CNCC(O)C1CCc2ccccc2O1)C1CCc2ccccc2O1 (stereo not drawn) [Compound 81]	guinea pig atrium (β1) (Cavia porcellus)	label 1
OC(CNCC(O)C1CCc2ccccc2O1)C1CCc2ccccc2O1 (stereo not drawn) [Compound 77]	guinea pig atrium (β1) (Cavia porcellus)	label 1
Cc1ccc2c(c1)CCC(C(O)CNCC(O)C1CCc3cc(C)ccc3O1)O2 (stereo not drawn) [Compound 85]	guinea pig atrium (β1) (Cavia porcellus)	label 1
Cc1cc(C)c2c(c1)OC(C(O)CNCC(O)C1CCc3ccccc3O1)CC2 (stereo not drawn) [Compound 104]	guinea pig atrium (β1) (Cavia porcellus)	label 0
OC(CNCC(O)C1CCc2ccc3c(c2O1)CCCC3)C1CCc2ccccc2O1 (stereo not drawn)	guinea pig atrium (β1) (Cavia porcellus)	label 0
OC(CNCC(O)C1CCc2ccccc2O1)C1CCc2ccccc2O1 (stereo not drawn) [Compound 75]	guinea pig atrium (β1) (Cavia porcellus)	label 0
Cc1ccc2c(c1)OC(C(O)CNCC(O)C1CCc3ccccc3O1)CC2 (stereo not drawn) [Compound 98]	guinea pig atrium (β1) (Cavia porcellus)	label 0

----------
biological target: guinea pig trachea (β2) (Cavia porcellus, UniProt Q8K4Z4); construct: The trachea was dissected from guinea-pigs; from tissue; host or cells: guinea-pig tracheal rings (tracheal smooth muscle); experiment: Guinea-pig tracheal ring test: inhibition of isoprenaline-induced relaxation (β2-adrenergic receptor blocking activity, in vitro); conditions: tracheal ring, methacholine 1 μg/ml, isoprenaline 0.08 μg/ml, 30 min, 35° C., probit analysis; read-out: ED50 value on guinea pig trachea (β2) (converted)
Sequence (Q8K4Z4 whole entry): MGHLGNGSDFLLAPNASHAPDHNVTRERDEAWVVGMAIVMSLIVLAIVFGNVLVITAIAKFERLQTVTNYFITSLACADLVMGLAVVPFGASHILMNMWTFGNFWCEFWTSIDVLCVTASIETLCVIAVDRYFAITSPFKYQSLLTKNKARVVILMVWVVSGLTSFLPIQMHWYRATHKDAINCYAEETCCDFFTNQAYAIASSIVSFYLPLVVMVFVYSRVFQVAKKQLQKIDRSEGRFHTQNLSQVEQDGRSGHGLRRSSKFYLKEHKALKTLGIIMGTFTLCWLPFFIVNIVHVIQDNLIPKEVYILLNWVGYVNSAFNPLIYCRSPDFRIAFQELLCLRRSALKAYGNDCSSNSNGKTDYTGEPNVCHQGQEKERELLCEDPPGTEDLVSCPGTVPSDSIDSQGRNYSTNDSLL
Each entry below carries its reported IC50.

molecule	IC50
Cc1ccc2c(c1)CCC(C(O)CNCC(O)C1CCc3ccccc3O1)O2 (stereo not drawn) [Compound 90]	≥ 26.1 µM
OC(CNCC(O)C1CCc2ccccc2O1)C1CCc2ccccc2O1 (stereo not drawn) [Compound 82]	> 6.77 µM
OC(CNCC(O)C1CCc2cc(F)ccc2O1)C1CCc2cc(F)ccc2O1 (stereo not drawn) [Compound 84]	> 24.7 µM

----------
Target: guinea pig trachea (β2) (Cavia porcellus, UniProt Q8K4Z4)
Construct: The trachea was dissected from guinea-pigs; from tissue; host or cells: guinea-pig tracheal rings (tracheal smooth muscle)
Test: Guinea-pig tracheal ring test: inhibition of isoprenaline-induced relaxation (β2-adrenergic receptor blocking activity, in vitro)
Conditions: ratio of ED50 trachea (β2) to ED50 right atrium (β1), index of cardioselectivity
Procedure: 2. Guinea-pig tracheal ring (β2) The trachea was dissected from guinea-pigs (400±50 g). Four rings, approximately 8 mm. in width, were then cut from each trachea. […] Tension changes recorded were thus an expression of contraction or relaxation. […] During the incubation period any direct effects of the drug were measured. […]

compound	β2 /β1
OC(CNCC(O)C1CCc2cc(F)ccc2O1)C1CCc2ccccc2O1 (stereo not drawn)	6,250
OC(CNCC(O)C1CCc2ccccc2O1)C1CCc2ccccc2O1 (stereo not drawn) [Compound 79]	13,157
OC(CNCC(O)C1CCc2ccccc2O1)C1CCc2ccccc2O1 (stereo not drawn) [Compound 76]	2,614

----------
target: guinea pig atrium (β1) (Cavia porcellus, UniProt H0W3H1); construct: Spontaneously beating right atria were dissected from guinea-pigs; from tissue; host or cells: guinea-pig right atrium (strip including the sinoatrial node); assay: Guinea-pig right atrium test: inhibition of isoprenaline-induced increase in heart rate (β1-adrenergic receptor blocking activity, in vitro); conditions: isolated right atrium, 30 min incubation, 37.5° C., estimated graphically, read-out: ED50 value on guinea pig atrium (β1) (converted)
Sequence (H0W3H1 1-470): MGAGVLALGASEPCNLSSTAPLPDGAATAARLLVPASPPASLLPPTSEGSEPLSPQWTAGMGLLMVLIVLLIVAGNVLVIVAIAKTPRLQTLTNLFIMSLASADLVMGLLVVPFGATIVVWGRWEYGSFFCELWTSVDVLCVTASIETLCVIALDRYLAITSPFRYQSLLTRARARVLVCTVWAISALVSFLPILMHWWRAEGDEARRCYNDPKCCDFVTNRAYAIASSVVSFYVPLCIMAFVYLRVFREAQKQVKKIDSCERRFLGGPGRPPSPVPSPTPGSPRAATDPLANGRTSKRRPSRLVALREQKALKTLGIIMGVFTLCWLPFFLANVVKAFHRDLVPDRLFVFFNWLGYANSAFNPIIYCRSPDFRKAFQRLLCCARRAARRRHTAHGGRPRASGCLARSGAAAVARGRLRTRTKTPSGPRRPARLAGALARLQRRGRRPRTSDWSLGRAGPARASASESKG
Each entry below carries its reported log10(IC50).
observation type: log10(IC50) (log10 of the value in nM)

compound	assayed target	log10(IC50)
OC(CNCC(O)C1CCc2ccccc2O1)C1CCc2ccccc2O1 (stereo not shown) [Compound 83]	guinea pig atrium (β1) (Cavia porcellus, UniProt H0W3H1)	0.10
CC(O)(CNCC(C)(O)C1CCc2ccccc2O1)C1CCc2ccccc2O1 (stereo not shown) [Compound 86]	guinea pig atrium (β1) (Cavia porcellus, UniProt H0W3H1)	0.48
Cc1ccc2c(c1)CCC(C(O)CNCC(O)C1CCc3ccccc3O1)O2 (stereo not shown) [Compound 93]	guinea pig atrium (β1) (Cavia porcellus, UniProt H0W3H1)	-0.38
Cc1cc(C)c2c(c1)OC(C(O)CNCC(O)C1CCc3ccccc3O1)CC2 (stereo not shown) [Compound 103]	guinea pig atrium (β1) (Cavia porcellus, UniProt H0W3H1)	0.80
Oc1ccc2c(c1)CCC(C(O)CNCC(O)C1CCc3ccccc3O1)O2 (stereo not shown) [Compound 130]	guinea pig atrium (β1) (Cavia porcellus, UniProt H0W3H1)	-0.09
OC(CNCC(O)C1CCc2ccccc2O1)C1CCc2ccccc2O1 (stereo not shown) [Compound 79]	guinea pig atrium (β1) (Cavia porcellus, UniProt H0W3H1)	-0.29
